Readings of relative integration efficiency (log2) for the listed sequences
# Tested on: VchCAST RNA-guided transposition machinery (E. coli BL21(DE3) host, lacZ target)
# ASSAY INFO: relative integration efficiency (T-LR orientation) vs wild-type transposon end (log2 (normalized fold change)); transposon end mutated: right end (5 bp flank + 75 bp right end); higher = more efficient transposition
READOUT: relative integration efficiency (log2)

- ACATTTGTGGATACAACCCTAAAATGATAATTACACCCATAAATTCATAATTATCACCCCCAATTTAACTATAACGCTCTGATCATAGTCAGACCAACATTGCTACGACCCGTATTCGCACCGACAC: -2.64
- ACATTTGTTGATACAACCATAAAATGTATTAATCACCCATAAATTGTATTAATTCACACCCATAAATTGTATAACGCTCTGATCATAGTCAGACCAACATTGCTACGACCCGTATTCGCACCGACAC: -2.39
- ACATTTGTTGATACAACCATAAAATGATAATTACACCCATAAATTGATAATTATCACACCCATAAATTGATATTGCCTCTGATCATAGTCAGACCCAACCATAAAATGATAATTAAAGCACCGACAC: 0.192
- ACATTTGTTGATACAACCATAAAATGATAATTACACCCATAAATTGATATTGCTCACACCCATAAATTGATAATTACTCTGATCATAGTCAGACCAACATTGCTACGACCCGTATTCGCACCGACAC: 0.634
- ACATTTGTTGATACAACCCTAAAATGATAATTACACCCATAAATTCATAATTATCACCCCCAATTTAACTATAACGCTCTGATCATAGTCAGACCAACATTGCTACGACCCGTATTCGCACCGACAC: -1.67
- ACATTTGTTGATACAACCATCAAATGATAATTACACCCCTACATTGATAATTATCACACCCAATTTAACTATAACGCTCTGATCATAGTCAGACCAACATTGCTACGACCCGTATTCGCACCGACAC: -1.57
- ACATTTGTTGATACAACCATAAAATGATAATTACAACCATAAAGTGATATTTATCACAACCATAAAATGATAATTACTCTGATCATAGTCAGACCAACATTGCTACGACCCGTATTCGCACCGACAC: -0.0691
- ACATTTGTGGATACAACCCTAAAATGATAATTACACCCATAAATTGATAATTATCACCCCCAATTTAACTATAACGCTCTGATCATAGTCAGACCAACATTGCTACGACCCGTATTCGCACCGACAC: 0.686
- ACATTTGTTGATACAACCATAAAATGATAATTACAACCATAAGTTGATATTTTTCACACCCATAAATTGATAATTACTCTGATCATAGTCAGACCAACATTGCTACGACCCGTATTCGCACCGACAC: -0.141
- ACATTTGTTGATACAACCATAACATGATAATTACACCCATAACTTGATAATTATCACACCCATAACTTGATATTGCCTCTGATCATAGTCAGACCAACATTGCTACGACCCGTATTCGCACCGACAC: -0.127
- ACATTTGTTCATACAACCATAAAATGATAATTACACCCATAAATGGATAATTATCACCCCCAATTTAACTATAACGCTCTGATCATAGTCAGACCAACATTGCTACGACCCGTATTCGCACCGACAC: 0.23
- ACATTTGTTGATACAACCATAAAATGATAATTACACCCATAAATTGATAATTATCACACCCATAAATTGATATTGCCTCTGATCATAGCGTACTAGTTAACTAGTTCGAGTCAGACCGCACCGACAC: -0.453
- ACATTTGTTGATACCACCATCAAATGATAATTCCACCCCTACATTGATAATTATCACACCCAATTTAACTATAACGCTCTGATCATAGTCAGACCAACATTGCTACGACCCGTATTCGCACCGACAC: -2.15
- ACATTTGTGGATACAACCCTAAAATGATAATTACACCCATAAATGGATAATTATCACCCCCAATTTAACTATAACGCTCTGATCATAGTCAGACCAACATTGCTACGACCCGTATTCGCACCGACAC: -1.16
- ACATTTGTTGATACAACCATAAAATGATAATTACACCCATAAATTGATAATTTCACACCCATAAATTGATATTGCCTCTGATCATAGTCAGACCAACATTGCTACGACCCGTATTCGCACCGACACT: 0.745
- ACATTTGTTGATACCACCATAAAATGATAATTCCACCCATAAATTGATAATTATCACACCCAATTTAACTATAACGCTCTGATCATAGTCAGACCAACATTGCTACGACCCGTATTCGCACCGACAC: 2.52
- ACATTTGTTGATACAACCATAAAATGATAATTTCACCCATAAATTGATAATTTTCACACCCATAAATTGATATTGGCTCTGATCATAGTCAGACCAACATTGCTACGACCCGTATTCGCACCGACAC: -0.0323
- ACATTTGTTGATACAACCATATAATGATAATAACACCGATAAAATGATAATTATCACACCCAATTTAACTATAACGCTCTGATCATAGTCAGACCAACATTGCTACGACCCGTATTCGCACCGACAC: 1.74
- ACATTTGTTGATACCCAAATAAAATGATAATTACACCCATAAATTGATAATTATCACACCCATAAATTGATATTGCCTCTGATCATAGTCAGACCAACATTGCTACGACCCGTATTCGCACCGACAC: -2.7
- ACATTTGTTGATACAACCATCAAATGGTAATTACACCCATAAATTGATAATTATCACACCCAATTTAACTATAACGCTCTGATCATAGTCAGACCAACATTGCTACGACCCGTATTCGCACCGACAC: 2.24
